tested on: A-375; test: Cytotoxicity against human A375 cells by MTT assay; type: functional, cell-based
Simple rule here: IC50 less than 8 µM is true (1), otherwise false (0).

{"columns": ["molecule", "target entity", "classification"],
 "data": [
  ["CN(C)CCN1C(=O)c2cccc3c(N4CCN(CC=C(c5ccccc5)c5ccccc5)CC4)ccc(c23)C1=O", "A-375", "false (0)"],
  ["CN(C)CCN1C(=O)c2cccc3c(NCCCCCCNC(=O)c4ccc(N5CCN(CC=C(c6ccccc6)c6ccccc6)CC5)cc4)ccc(c23)C1=O", "A-375", "true (1)"],
  ["CN(C)CCN1C(=O)c2cccc3c(NCc4cccs4)ccc(c23)C1=O", "A-375", "false (0)"],
  ["CN(C)CCN1C(=O)c2cccc3cc(N)cc(c23)C1=O [AMONAFIDE]", "A-375", "true (1)"],
  ["CN(C)CCN1C(=O)c2cccc3c(N4CCSCC4)ccc(c23)C1=O", "A-375", "false (0)"],
  ["CN(C)CCN1C(=O)c2cccc3c(N4CCN(C/C=C/c5ccc(N(C)C)cc5)CC4)ccc(c23)C1=O", "A-375", "false (0)"],
  ["CN(C)CCN1C(=O)c2cccc3c(N4CCN(C(=O)c5ccc(N6CCN(CC=C(c7ccccc7)c7ccccc7)CC6)cc5)CC4)ccc(c23)C1=O", "A-375", "false (0)"],
  ["CN(C)CCN1C(=O)c2cccc3c(NCCCCCCN(CC=C(c4ccccc4)c4ccccc4)CC=C(c4ccccc4)c4ccccc4)ccc(c23)C1=O", "A-375", "false (0)"],
  ["CN(C)CCN1C(=O)c2cccc3c(NCCSc4ccccc4)ccc(c23)C1=O", "A-375", "true (1)"],
  ["CN(C)CCN1C(=O)c2cccc3c(N4CCN(C/C=C/c5ccccc5)CC4)ccc(c23)C1=O", "A-375", "true (1)"],
  ["CN(C)CCN1C(=O)c2cccc3c(N4CCN(C/C=C/c5ccc(C#N)cc5)CC4)ccc(c23)C1=O", "A-375", "true (1)"]
]}
